- measured_target: rat Oatp1b2 (Rattus norvegicus, UniProt Q9QZX8)
- Sequence (Q9QZX8 whole entry): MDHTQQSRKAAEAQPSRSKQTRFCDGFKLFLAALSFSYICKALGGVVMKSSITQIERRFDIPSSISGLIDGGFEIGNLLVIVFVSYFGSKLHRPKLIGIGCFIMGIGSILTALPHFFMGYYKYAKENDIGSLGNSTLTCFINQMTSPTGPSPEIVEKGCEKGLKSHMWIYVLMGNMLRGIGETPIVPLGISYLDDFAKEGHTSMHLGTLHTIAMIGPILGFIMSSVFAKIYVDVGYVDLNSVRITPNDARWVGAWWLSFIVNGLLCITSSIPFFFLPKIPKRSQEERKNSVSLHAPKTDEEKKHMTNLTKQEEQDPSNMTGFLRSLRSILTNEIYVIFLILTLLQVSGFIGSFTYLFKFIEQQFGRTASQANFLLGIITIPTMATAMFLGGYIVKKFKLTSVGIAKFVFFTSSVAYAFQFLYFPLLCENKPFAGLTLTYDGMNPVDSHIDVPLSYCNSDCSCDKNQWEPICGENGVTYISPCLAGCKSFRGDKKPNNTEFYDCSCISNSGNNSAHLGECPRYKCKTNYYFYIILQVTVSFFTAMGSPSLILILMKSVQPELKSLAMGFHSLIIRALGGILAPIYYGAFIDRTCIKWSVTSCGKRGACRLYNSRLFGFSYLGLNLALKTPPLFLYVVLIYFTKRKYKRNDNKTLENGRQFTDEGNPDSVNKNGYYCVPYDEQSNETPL
- run_description: Cellular transport assay, HEK-293 cells expressing rat Oatp1b2
endpoint_name: substrate of rat Oatp1b2

• O=C(/C=C/c1ccc(O)c2c1[C@H](C(=O)O)[C@@H](c1ccc(O)c(O)c1)O2)O[C@H](Cc1ccc(O)c(O)c1)C(=O)O [Lithospermic acid, lithospermic acid] = substrates
• O=C(/C=C/c1ccc(O)c(O)c1)O[C@H](Cc1ccc(O)c(O)c1)C(=O)O [Rosmarinic acid, rosmarinic acid] = substrates
• O=C(O)Cc1c(/C=C/C(=O)O[C@H](Cc2ccc(O)c(O)c2)C(=O)O)ccc(O)c1O [Salvianolic acid D, salvianolic acid D] = substrates
